Measured Kd, listed per entry for reference.
- Assay System: T1, PAS #1(200)-IL1Ra
- T1 construct: PASylated fusion protein produced in E. coli; Biotinylated for the SPR measurements with Fabs
- T1 sequence (chain, as listed by the source limits assumed): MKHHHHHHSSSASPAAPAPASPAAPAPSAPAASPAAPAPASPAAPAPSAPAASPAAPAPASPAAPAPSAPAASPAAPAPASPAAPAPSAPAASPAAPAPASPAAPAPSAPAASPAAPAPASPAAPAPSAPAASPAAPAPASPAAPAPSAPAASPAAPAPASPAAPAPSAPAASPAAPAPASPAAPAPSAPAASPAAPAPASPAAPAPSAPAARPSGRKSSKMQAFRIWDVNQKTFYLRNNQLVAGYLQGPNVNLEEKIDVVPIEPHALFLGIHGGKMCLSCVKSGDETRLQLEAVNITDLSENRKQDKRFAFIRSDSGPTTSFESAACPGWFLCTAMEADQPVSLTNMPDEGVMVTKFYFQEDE
- Test: SPR, MAb from hybridoma supernatant captured by anti-mouse antibody, antigen as analyte, bivalent analyte model
The answer is to be given in nM; state only the numeric part.

Worked set:
Binder	Units	Recorded Measurement
Anti-PA(S) MAb 2.1 (antibody, V domains shown, Mouse monoclonal IgG from hybridoma (supernatant or protein G purified); also called DSM ACC3366) VH: QVTLKESGPGILQPSQTLSLTCSFSGFSLSTYDMGVGWIRQPSGKGLEWLANIWWNDNKYYNSALKSRLTISKDTSNNQVFLKISSVDATDTATYYCAQMRDNYGVWFAFWGQGTLVTVSA VL: DIVMSQSPSSLAVSVGEKVTMSCKSSQSLFYSNREKNYLAWYQQKPGQSPKLLIYWASTRESGVPDRFTGSGSGTDFTLTISNVKAEDLAVYYCQQYYNYPTFGAGTKLELKR	nM	1.7
Anti-PA(S) MAb 1.2 (antibody, V domains shown, Mouse monoclonal IgG from hybridoma (culture supernatant); alkaline phosphatase conjugate in the thymosin sandwich ELISA) VH: QVQLVESGGGLVQPGGSLKLSCAASGFTFSSYGMSWVRQTPDKRLELVATINSNGGSTYYLDSVKGRFTISRDKAKNTLYLQMSSLKSEDTAMYYCVRGGSIYDGYDYAMDYWGQGTSVTVSS VL: DIVLTQSPASLAVSLGQRATISCRASQSVSTSSYSYMHWFQQKPGQPPKLLIKYASNLESGVPARFSGSGSGTDFTLNIHPVEEEDTATYYCQHSWEIPLTFGAGTKLELKR	nM	44

The measured Kd associated with Anti-PA(S) MAb 2.2 (antibody, V domains shown, Mouse monoclonal IgG from hybridoma (culture supernatant); also called 3F3E2) VH: QVTLKESGPGILQPSQTLSLTCSFSGFSLNTYGMGVGWIRQPSGKGLEWLANIWWTDDKYYNSVLKSRLTISKDTFNNQVFLKISSVDTADTATYYCAQLAYHDNPWFAYWGQGTLVTVSA VL: DIVMSQSPSSLAVSVGEKVTLSCKSSQSLLYSNNQKNYLAWYQQKPGQSPKLLIYWASTRESGVPDRFTGSGSGTDFTLTISSVKAEDLAVYYCQQYYNYPTFGGGTKLEIKR reads 22
